Experiment: Rm from reversed phase partition chromatography (lipophilic-hydrophilic balance)
Note to self: chromatographic logP under 0.4 means class 1, ties and anything higher get class 0.

Recorded results for 3 compounds are shown here.
compound | category_label
CNc1cc(NP(=O)(OC)OC)ccc1Nc1c2ccccc2nc2cc(Br)ccc12 | class 0
Cc1cccc2c(Nc3ccc(NS(C)(=O)=O)cc3NCC(O)CO)c3ccccc3nc12 (centres unmarked) | class 1
CNc1cc(NS(C)(=O)=O)ccc1Nc1c2ccc(F)cc2nc2c(C)cccc12 | class 1

Please indicate whether the reported chromatographic logP of CNC(=O)c1cccc2c(Nc3ccc(NS(C)(=O)=O)cc3NC)c3ccccc3nc12 is strictly below 0.4.
class 1

Please let me know if CNc1cc(NS(=O)(=O)c2ccccc2)ccc1Nc1c2ccccc2nc2ccccc12 shows chromatographic logP below 0.4.
class 0

Problem: For the compound CNc1cc(NS(C)(=O)=O)ccc1Nc1c2ccccc2nc2cc(OC)ccc12 , is chromatographic logP under 0.4?
class 1

###

Test: Rm from reversed phase partition chromatography (lipophilic-hydrophilic balance)
Criterion: chromatographic logP strictly less than 0.4. Met: MET. Not met: NOT MET.

# example entries with known answers
compound | category_label
CNc1cc(NS(=O)(=O)c2ccc(N)cc2)ccc1Nc1c2ccccc2nc2c(C)cccc12 [Compound 64] | MET
CNc1cc(NS(C)(=O)=O)ccc1Nc1c2ccccc2nc2cc(Br)ccc12 [Compound 7] | MET
CNc1cc(NC(=O)OC)ccc1Nc1c2ccccc2nc2c(C)cccc12 [Compound 58] | NOT MET
CNc1cc(NS(=O)(=O)c2ccc(N)cc2)ccc1Nc1c2ccccc2nc2cc(Br)ccc12 [Compound 63] | MET
CNc1cc(NS(C)(=O)=O)ccc1Nc1c2ccccc2nc2cc([N+](=O)[O-])ccc12 [Compound 9] | MET

--- query ---
Problem: For the compound CNc1cc(NP(=O)(OC)OC)ccc1Nc1c2ccccc2nc2c(C)cccc12 [Compound 49] , is chromatographic logP under 0.4?
NOT MET

###

Quick reference for ILS (percentage increase in lifespan), Lewis lung among some compounds
Tested on: Lewis lung carcinoma
Test: Lewis lung carcinoma in vivo (increase in lifespan)
Settings: at OD; i.v. tumour, days 1, 5 and 9; >40% statistically significant
Answer in %, number only, no unit symbol.

Here are 3 compounds together with their reported answers.
compound | u | data_value
CNc1cc(NC(=O)OC)ccc1Nc1c2ccc(Br)cc2nc2c(C)cccc12 [Compound 57] | % | 82
CNc1cc(NC(=O)OC)ccc1Nc1c2ccc(Cl)cc2nc2c(C)cccc12 [Compound 56] | % | 100
COc1cc(NS(C)(=O)=O)ccc1Nc1c2ccccc2nc2ccccc12 [m-AMSA, reference compound] | % | 38

Report ILS (percentage increase in lifespan), Lewis lung for CNc1cc(NS(C)(=O)=O)ccc1Nc1c2ccccc2nc2ccccc12 [Compound 1]
85

// Input: CNc1cc(NC(=O)OC)ccc1Nc1c2ccccc2nc2c(C)cccc12 [Compound 58] . Output its ILS (percentage increase in lifespan), Lewis lung only.
48

###

Assay: Rm from reversed phase partition chromatography (lipophilic-hydrophilic balance)
Assign class by chromatographic logP: not lower than 0.2 means y; lower than 0.2 means n.

State whether the measured chromatographic logP reaches 0.2, counting equality as reaching it, for CNc1cc(NC(=O)Oc2ccccc2)ccc1Nc1c2ccccc2nc2ccccc12 [Compound 66]
y

Decide: chromatographic logP of CN(CCO)c1cc(NS(C)(=O)=O)ccc1Nc1c2ccccc2nc2ccccc12 [Compound 45] >= 0.2?
n

Reported chromatographic logP reaches at least 0.2 for CS(=O)(=O)Nc1ccc(Nc2c3ccccc3nc3ccccc23)c(NCCO)c1 [Compound 27] ?
n

hey, is chromatographic logP for this one >= 0.2? CNc1cc(NS(C)(=O)=O)ccc1Nc1c2ccc(Br)cc2nc2c(C)cccc12 [Compound 21]
y

I'd appreciate it if you could say whether CS(=O)(=O)Nc1ccc(Nc2c3ccccc3nc3cc(Br)ccc23)c(NCCO)c1 [Compound 28] has chromatographic logP at least equal to 0.2.
n

Decide: is the reported value of chromatographic logP for CNC(=O)c1cccc2c(Nc3ccc(NS(C)(=O)=O)cc3NC)c3ccc(Cl)cc3nc12 [Compound 23] equal to or greater than 0.2?
y

chromatographic logP >= 0.2 for CNc1cc(NC(=O)OC)ccc1Nc1c2ccccc2nc2cc(C)ccc12 [Compound 52] ?
y

Is chromatographic logP at least 0.2? Consider CNc1cc(NS(C)(=O)=O)ccc1Nc1c2ccccc2nc2c(C)cccc12 [Compound 12]
n

Each recorded value in this set is attributed to patent US4603125A.
